This section presents compounds with their documented IC50 values.
# TESTED SYSTEM: human αVβ6 (Homo sapiens, UniProt P06756+P18564)
# Sequence (P06756 31-992 limits assumed): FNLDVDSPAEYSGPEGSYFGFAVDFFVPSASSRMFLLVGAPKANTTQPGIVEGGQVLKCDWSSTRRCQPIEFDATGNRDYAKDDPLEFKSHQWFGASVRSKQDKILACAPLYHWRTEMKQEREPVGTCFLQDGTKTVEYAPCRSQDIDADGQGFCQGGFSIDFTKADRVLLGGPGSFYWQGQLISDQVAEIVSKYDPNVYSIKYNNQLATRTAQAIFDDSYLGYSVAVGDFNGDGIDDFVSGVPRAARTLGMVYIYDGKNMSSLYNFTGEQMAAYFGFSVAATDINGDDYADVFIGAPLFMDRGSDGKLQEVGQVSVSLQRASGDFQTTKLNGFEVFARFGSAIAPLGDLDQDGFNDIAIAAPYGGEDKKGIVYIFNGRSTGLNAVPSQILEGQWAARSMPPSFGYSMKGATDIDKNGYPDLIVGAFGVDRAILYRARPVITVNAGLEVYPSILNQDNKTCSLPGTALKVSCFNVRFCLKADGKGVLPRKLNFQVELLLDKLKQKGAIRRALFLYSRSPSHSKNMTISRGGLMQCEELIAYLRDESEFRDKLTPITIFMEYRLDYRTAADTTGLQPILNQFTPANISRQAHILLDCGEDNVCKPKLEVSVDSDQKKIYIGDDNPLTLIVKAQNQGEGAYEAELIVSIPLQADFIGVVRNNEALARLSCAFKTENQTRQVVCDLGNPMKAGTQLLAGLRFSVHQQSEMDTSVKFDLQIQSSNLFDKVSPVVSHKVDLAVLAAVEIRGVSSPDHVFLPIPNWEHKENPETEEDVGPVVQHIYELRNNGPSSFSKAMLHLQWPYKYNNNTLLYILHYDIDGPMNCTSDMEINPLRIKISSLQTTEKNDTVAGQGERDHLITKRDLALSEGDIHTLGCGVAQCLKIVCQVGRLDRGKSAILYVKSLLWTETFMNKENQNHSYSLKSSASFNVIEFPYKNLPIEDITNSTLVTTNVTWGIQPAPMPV
# Sequence (P18564 22-707 limits assumed): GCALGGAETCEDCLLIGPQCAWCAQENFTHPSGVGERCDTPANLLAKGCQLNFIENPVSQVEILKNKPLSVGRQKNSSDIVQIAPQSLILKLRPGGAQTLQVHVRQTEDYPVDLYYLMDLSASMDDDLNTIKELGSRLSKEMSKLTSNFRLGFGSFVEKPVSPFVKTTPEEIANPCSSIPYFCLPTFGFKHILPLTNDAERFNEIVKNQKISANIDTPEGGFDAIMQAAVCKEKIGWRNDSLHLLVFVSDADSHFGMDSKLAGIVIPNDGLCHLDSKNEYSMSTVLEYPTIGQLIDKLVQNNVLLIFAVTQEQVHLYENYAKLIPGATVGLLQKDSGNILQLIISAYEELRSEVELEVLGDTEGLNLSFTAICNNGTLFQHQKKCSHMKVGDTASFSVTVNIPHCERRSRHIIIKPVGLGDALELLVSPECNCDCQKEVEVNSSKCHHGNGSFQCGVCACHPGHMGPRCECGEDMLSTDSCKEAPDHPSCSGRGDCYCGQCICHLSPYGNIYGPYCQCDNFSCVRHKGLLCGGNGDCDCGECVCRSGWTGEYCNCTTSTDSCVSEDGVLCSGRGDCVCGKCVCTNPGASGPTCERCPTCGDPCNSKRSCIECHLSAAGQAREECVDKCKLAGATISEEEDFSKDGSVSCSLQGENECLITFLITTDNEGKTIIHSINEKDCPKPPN
# ASSAY NAME: human αVβ6 HTRF binding assay
# CONDITION DESCRIPTION: alternatively SPA-based assay
EXPERIMENTAL READOUT: IC50

| COMPOUND | EXPERIMENTAL READOUT | MEAS VALUE |
| --- | --- | --- |
| COc1ccc([C@H](CC(=O)O)NC(=O)C2CN(CCc3ccc4c(n3)NCCC4)C2)cc1F [Example 42] | IC50 | 0.4 nM |
| COc1ccc(C(CC(=O)O)C2(F)CN(CCCCc3ccc4c(n3)NCCC4)C2)cn1 (stereo not drawn) [Example 122] | IC50 | 28 nM |
| COc1ccc(C(CC(=O)O)C2CC(NCCCc3ccc4c(n3)NCCC4)C2)cn1 (stereo not drawn) [Example 125] | IC50 | 5.7 nM |
| O=C(O)CC(c1cccc(N2CCOCC2)c1)C1CC(CCCCc2ccc3c(n2)NCCC3)C1 (stereo not drawn) [Example 146] | IC50 | 14 nM |
| O=C(N[C@@H](CNC(=O)C1CC(CCc2ccc3c(n2)NCCC3)C1)C(=O)O)OCc1ccccc1 (stereo partly drawn) [Example 58] | IC50 | 0.44 nM |
| COc1ncc([C@H](CC(=O)O)NC(=O)[C@H]2C[C@@H](CCc3ccc4c(n3)NCCC4)C2)cn1 [Example 83] | IC50 | 2 nM |

----------
# TESTED SYSTEM: human αVβ3 (Homo sapiens, UniProt P05106+P06756)
# Sequence (P06756 31-992 limits assumed): as the sequence (P06756 31-992 limits assumed) above
# Sequence (P05106 27-718 limits assumed): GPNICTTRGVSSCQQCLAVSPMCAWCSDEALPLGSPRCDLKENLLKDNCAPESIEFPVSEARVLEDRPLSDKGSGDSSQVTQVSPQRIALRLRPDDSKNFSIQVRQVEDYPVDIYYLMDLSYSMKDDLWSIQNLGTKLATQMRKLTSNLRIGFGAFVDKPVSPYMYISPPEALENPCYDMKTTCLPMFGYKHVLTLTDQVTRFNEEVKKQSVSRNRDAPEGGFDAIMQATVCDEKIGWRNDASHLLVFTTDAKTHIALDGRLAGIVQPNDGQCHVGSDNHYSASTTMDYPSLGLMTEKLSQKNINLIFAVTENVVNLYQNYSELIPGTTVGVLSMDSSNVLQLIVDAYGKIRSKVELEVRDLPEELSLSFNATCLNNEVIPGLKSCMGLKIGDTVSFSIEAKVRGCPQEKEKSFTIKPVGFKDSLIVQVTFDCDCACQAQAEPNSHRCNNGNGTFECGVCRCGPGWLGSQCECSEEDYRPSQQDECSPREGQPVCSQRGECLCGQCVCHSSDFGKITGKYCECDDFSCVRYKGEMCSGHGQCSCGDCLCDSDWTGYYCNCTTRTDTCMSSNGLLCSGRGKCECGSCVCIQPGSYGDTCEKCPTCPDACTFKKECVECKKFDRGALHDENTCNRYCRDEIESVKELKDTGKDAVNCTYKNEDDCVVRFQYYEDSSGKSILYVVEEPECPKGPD
# ASSAY NAME: human αVβ3 HTRF binding assay
# CONDITION DESCRIPTION: alternatively SPA-based assay
pIC50: −log10 of the molar value.
This section presents molecules with their documented pIC50 values.

| MOLECULE | TESTED SYSTEM | pIC50 |
| --- | --- | --- |
| O=C(O)C[C@H](NC(=O)[C@H]1C[C@H](CCc2ccc3c(n2)NCCC3)C1)c1ccc2c(c1)OCC2 [Example 88] | human αVβ3 (Homo sapiens, UniProt P05106+P06756) | 8.57 |
| COc1ncc([C@H](CC(=O)O)NC(=O)[C@H]2C[C@@H](CCc3ccc4c(n3)NCCC4)C2)cn1 [Example 83] | human αVβ3 (Homo sapiens, UniProt P05106+P06756) | 8.49 |
| O=C(N[C@@H](CNC(=O)C1CC(CCc2ccc3c(n2)NCCC3)C1)C(=O)O)OCc1ccccc1 (some centres unmarked) [Example 58] | human αVβ3 (Homo sapiens, UniProt P05106+P06756) | 8.62 |
| O=C(N[C@@H](CNC(=O)[C@H]1C[C@@H](CCc2ccc3c(n2)NCCC3)C1)C(=O)O)OCc1ccccc1 [Example 77] | human αVβ3 (Homo sapiens, UniProt P05106+P06756) | 8.70 |
| Cc1ncc([C@H](CC(=O)O)N2CC(CCCCc3ccc4c(n3)NCCC4)C2)cn1 [Example 26] | human αVβ3 (Homo sapiens, UniProt P05106+P06756) | 8.75 |

----------
This section presents molecules with their documented pIC50 values.
# TESTED SYSTEM: human αVβ6 (Homo sapiens, UniProt P06756+P18564)
# ASSAY NAME: human αVβ6 HTRF binding assay
# CONDITION DESCRIPTION: alternatively SPA-based assay
pIC50: −log10 of the molar value.
EXPERIMENTAL READOUT: pIC50

| MOLECULE | EXPERIMENTAL READOUT | MEAS VALUE |
| --- | --- | --- |
| CCOC(=O)[C@H](CNC(=O)[C@H]1C[C@@H](Cc2ccc3c(n2)NCCC3)C1)NC(=O)OCc1ccccc1 [Example 195] | pIC50 | 7.89 |
| COc1ccc(C(NC(=O)C2CC(CCc3ccc4c(n3)NCCC4)C2)C(C)(C)C(=O)O)cn1 (single isomer, unassigned) [Example 189] | pIC50 | 5.30 |
| COc1ccc(C(CC(=O)O)C2CN(CCCCc3ccc4c(n3)NCCC4)C2)cc1F (centres unmarked) [Example 143] | pIC50 | 8.07 |
| Cc1ncc([C@@H](CC(=O)O)N2CC(OCCCc3ccc4c(n3)NCCC4)C2)cn1 [example 132] | pIC50 | 7.60 |
| CCOC(=O)C[C@H](NC(=O)C1CC2(C1)CN(CCc1ccc3c(n1)NCCC3)C2)c1ccc(OC)c(F)c1 [Example 31] | pIC50 | 6.64 |
| O=C(O)C[C@@H](c1ccc2c(c1)CCO2)N1CC(CCCCc2ccc3c(n2)NCCC3)C1=O (some centres unmarked) [Example 111] | pIC50 | 8.22 |
| CC(=O)N(C1CN(CCCc2ccc3c(n2)NCCC3)C1)[C@@H](CC(=O)O)c1cc(Cl)cc(Cl)c1 [Example 21] | pIC50 | 8.01 |
| O=C(O)C[C@H](NC(=O)C1CN(CCc2ccc3c(n2)NCCC3)C1)c1cc(Cl)cc(Cl)c1 [Example 38] | pIC50 | 9.10 |

----------
# TESTED SYSTEM: human αVβ8 (Homo sapiens, UniProt P06756+P26012)
# Sequence (P06756 31-992 limits assumed): as the sequence (P06756 31-992 limits assumed) above
# Sequence (P26012 43-684 limits assumed): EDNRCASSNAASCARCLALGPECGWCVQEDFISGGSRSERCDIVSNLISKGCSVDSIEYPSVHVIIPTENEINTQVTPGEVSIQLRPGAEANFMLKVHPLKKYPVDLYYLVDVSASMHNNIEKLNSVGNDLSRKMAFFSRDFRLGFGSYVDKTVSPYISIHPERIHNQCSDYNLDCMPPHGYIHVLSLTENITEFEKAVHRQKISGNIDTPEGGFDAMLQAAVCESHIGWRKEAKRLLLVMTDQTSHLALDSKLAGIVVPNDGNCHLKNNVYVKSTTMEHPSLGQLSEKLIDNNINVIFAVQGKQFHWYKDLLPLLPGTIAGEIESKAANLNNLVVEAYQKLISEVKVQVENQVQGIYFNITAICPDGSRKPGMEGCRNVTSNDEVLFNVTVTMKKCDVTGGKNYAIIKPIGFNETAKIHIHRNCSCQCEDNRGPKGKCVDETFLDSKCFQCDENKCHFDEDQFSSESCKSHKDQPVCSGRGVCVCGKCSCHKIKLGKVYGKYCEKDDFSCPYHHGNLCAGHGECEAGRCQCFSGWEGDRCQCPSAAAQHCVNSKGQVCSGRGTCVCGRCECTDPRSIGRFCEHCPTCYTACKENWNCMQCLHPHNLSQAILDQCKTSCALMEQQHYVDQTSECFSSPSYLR
# ASSAY NAME: human αVβ8 HTRF binding assay
# CONDITION DESCRIPTION: alternatively SPA-based assay
# Description: All binding assays used the HTRF (homogeneous time resolved fluorescence) technology from Cisbio International, therefore all assays are described as HTRF binding assays. The assay results for the Examples are listed above together with the characterization data. The HTRF binding assays are established for the following integrins: human αVβ6, human αVβ1, human αVβ3, human αVβ5, and human αVβ8. […]
pIC50: −log10 of the molar value.
This section presents compounds with their documented pIC50 values.
EXPERIMENTAL READOUT: pIC50

| COMPOUND | EXPERIMENTAL READOUT | MEAS VALUE |
| --- | --- | --- |
| O=C(O)C[C@H](NC(=O)[C@H]1C[C@H](CCc2ccc3c(n2)NCCC3)C1)c1cnc2ccccc2c1 | pIC50 | 7.08 |
| Cc1ncc([C@H](CC(=O)O)NC(=O)[C@H]2C[C@H](CCc3ccc4c(n3)NCCC4)C2)cn1 | pIC50 | 6.10 |
| COc1ccc([C@H](CC(=O)O)N2CC(CCCCc3ccc4c(n3)NCCC4)C2=O)cn1 (some centres unmarked) | pIC50 | 6.20 |
| O=C(O)C[C@@H](c1cnc2ccccc2c1)N1CC(CCCCc2ccc3c(n2)NCCC3)C1=O (some centres unmarked) | pIC50 | 6.57 |
| O=C(N[C@@H](CNC(=O)C1(F)CN(CCc2ccc3c(n2)NCCC3)C1)C(=O)O)OCc1ccccc1 | pIC50 | 7.05 |
| O=C(O)C[C@@H](c1ccc2c(c1)CCO2)N1CC(CCCCc2ccc3c(n2)NCCC3)C1=O (some centres unmarked) | pIC50 | 7.32 |
| COc1ccc([C@H](CC(=O)O)NC(=O)N2CC(CCc3ccc4c(n3)NCCC4)C2)cc1F | pIC50 | 6.39 |
| COc1ccc([C@H](CC(=O)O)NC(=O)[C@H]2C[C@H](CCc3ccc4c(n3)NCCC4)C2)cn1 | pIC50 | 6.57 |
| Cc1cc(C)c(S(=O)(=O)N[C@@H](CNC(=O)[C@H]2C[C@H](CCc3ccc4c(n3)NCCC4)C2)C(=O)O)c(C)c1 | pIC50 | 7.82 |
| O=C(O)C[C@H](NC(=O)[C@H]1C[C@@H](CCc2ccc3c(n2)NCCC3)C1)c1ccc2c(c1)OCC2 | pIC50 | 6.60 |
| COc1ccc([C@H](CC(=O)O)N2CC(CCCCc3ccc4c(n3)NCCC4)C2)cc1F | pIC50 | 7.96 |
| COc1ncc([C@H](CC(=O)O)NC(=O)[C@H]2C[C@H](CCc3ccc4c(n3)NCCC4)C2)cn1 | pIC50 | 6.33 |
| O=C(N[C@@H](CNC(=O)[C@H]1C[C@H](CCc2ccc3c(n2)NCCC3)C1)C(=O)O)OCc1ccccc1 | pIC50 | 7.42 |
| COc1ccc([C@H](CC(=O)O)NC(=O)[C@H]2C[C@H](CCc3ccc4c(n3)NCCC4)C2)cc1F | pIC50 | 6.89 |
| COc1ccc([C@H](CC(=O)O)NC(=O)C2CC(CCc3ccc4c(n3)NCCC4)C2)cn1 (some centres unmarked) | pIC50 | 7.26 |
| O=C(N[C@@H](CNC(=O)C1CC(CCc2ccc3c(n2)NCCC3)C1)C(=O)O)OCc1ccccc1 (some centres unmarked) | pIC50 | 7.21 |
| Cc1cc(C)c(S(=O)(=O)N[C@@H](CNC(=O)[C@H]2C[C@@H](CCc3ccc4c(n3)NCCC4)C2)C(=O)O)c(C)c1 | pIC50 | 7.82 |
